Some molecules, each annotated with its measured pEC50.
testSystem: F508delCFTR (Homo sapiens, UniProt P13569, DEL508-508)
Construct: expressed in transfected cells; host or cells: CFBE41o- human lung-derived epithelial cells (CFBE4lo-F508delCFTR-HRP), doxycycline-inducible
Sequence (P13569 with tags, fused parts or gaps DEL508-508): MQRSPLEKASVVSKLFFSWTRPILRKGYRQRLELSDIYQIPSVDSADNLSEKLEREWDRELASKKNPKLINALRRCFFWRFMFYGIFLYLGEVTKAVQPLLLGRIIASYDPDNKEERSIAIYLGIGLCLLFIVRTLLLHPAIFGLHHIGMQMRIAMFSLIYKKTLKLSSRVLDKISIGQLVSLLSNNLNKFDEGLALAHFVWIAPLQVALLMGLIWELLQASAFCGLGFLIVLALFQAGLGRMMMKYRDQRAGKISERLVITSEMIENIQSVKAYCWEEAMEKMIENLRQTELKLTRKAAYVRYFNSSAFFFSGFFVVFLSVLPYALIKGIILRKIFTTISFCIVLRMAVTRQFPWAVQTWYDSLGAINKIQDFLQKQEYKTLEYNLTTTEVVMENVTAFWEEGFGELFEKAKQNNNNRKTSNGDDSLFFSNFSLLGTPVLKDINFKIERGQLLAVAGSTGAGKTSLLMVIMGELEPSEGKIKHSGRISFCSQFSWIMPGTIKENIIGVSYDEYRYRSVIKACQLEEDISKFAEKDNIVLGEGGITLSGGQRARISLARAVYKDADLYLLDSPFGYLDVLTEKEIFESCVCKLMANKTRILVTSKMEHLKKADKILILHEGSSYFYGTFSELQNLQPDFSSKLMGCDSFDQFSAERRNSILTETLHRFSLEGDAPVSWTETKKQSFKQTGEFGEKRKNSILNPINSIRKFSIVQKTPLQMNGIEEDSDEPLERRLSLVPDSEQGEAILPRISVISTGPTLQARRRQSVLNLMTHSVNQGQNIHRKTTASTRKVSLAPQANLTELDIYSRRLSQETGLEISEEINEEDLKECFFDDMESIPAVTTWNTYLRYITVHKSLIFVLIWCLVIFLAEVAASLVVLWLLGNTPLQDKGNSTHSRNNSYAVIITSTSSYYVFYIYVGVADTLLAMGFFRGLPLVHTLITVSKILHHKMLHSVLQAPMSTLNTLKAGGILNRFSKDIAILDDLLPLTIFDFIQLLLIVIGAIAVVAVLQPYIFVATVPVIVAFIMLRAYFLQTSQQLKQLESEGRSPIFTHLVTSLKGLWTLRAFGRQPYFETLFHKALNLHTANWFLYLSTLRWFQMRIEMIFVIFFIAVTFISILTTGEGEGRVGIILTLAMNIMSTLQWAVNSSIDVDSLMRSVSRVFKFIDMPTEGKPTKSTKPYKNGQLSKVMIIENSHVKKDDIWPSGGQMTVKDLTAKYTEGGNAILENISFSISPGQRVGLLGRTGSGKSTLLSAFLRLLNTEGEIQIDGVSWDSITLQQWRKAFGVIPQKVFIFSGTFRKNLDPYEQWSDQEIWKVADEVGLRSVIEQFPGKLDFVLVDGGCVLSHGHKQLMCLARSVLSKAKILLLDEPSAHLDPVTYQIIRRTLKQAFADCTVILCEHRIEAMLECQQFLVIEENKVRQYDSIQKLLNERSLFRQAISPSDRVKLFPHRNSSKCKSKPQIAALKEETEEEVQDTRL
testName: Cell Surface Expression-Horse Radish Peroxidase (CSE-HRP) Assay
Type: cell-based
setupConditions: with co-corrector (2 μM of 3-[(2R,4R)-4-({[1-(2,2-difluoro-1,3-benzodioxol-5-yl)cyclopropyl]carbonyl}amino)-7-methoxy-3,4-dihydro-2H-chromen-2-yl]benzoic acid); read-out: EC50 (with co-corrector)
Method: Cell Surface Expression-Horse Radish Peroxidase (CSE-HRP) Assay The development was achieved by expressing the F508delCFTR mutation along with a horseradish peroxidase (HRP) in the fourth exofacial loop, and then measuring the HRP activity using luminescence readout from these cells, CFBE4lo-F508delCFTR-HRP, that were incubated overnight with the test corrector compounds, either without or with the co-corrector. […] The raw counts from the experiment were analyzed using Accelrys® Assay Explorer v3.3. […]
pEC50: −log10 of the molar value.
valueKind: pEC50

[[record]]
molecule = "COc1ncc(C2CCC2)cc1CN[C@H]1[C@H](C(C)(C)C)[C@@H](C(=O)O)N(C(=O)OC(C)C)[C@H]1c1ccccc1C"
testsystem = "F508delCFTR (Homo sapiens, UniProt P13569, DEL508-508)"
reportedresult = "> 6.00"

[[record]]
molecule = "COc1cccc([C@H]2[C@@H](Nc3cccc(OC(F)F)n3)[C@H](C(C)(C)C)[C@@H](C(=O)O)N2C(=O)C2(C)CCCOC2)n1 (mixture of isomers)"
testsystem = "F508delCFTR (Homo sapiens, UniProt P13569, DEL508-508)"
reportedresult = "5.00 to 6.00"

[[record]]
molecule = "COc1ccc(C(F)(F)F)cc1CN[C@H]1[C@H](C(C)(C)C)[C@@H](C(=O)O)N(C(=O)C2C3CCCC32)[C@H]1c1ccccc1 (some centres unmarked)"
testsystem = "F508delCFTR (Homo sapiens, UniProt P13569, DEL508-508)"
reportedresult = "5.00 to 6.00"

[[record]]
molecule = "CCOc1cc(N[C@H]2[C@H](C(C)(C)C)[C@@H](C(=O)O)N(C(=O)C3CCCCC3)[C@H]2c2ccccc2)nc2ccccc12"
testsystem = "F508delCFTR (Homo sapiens, UniProt P13569, DEL508-508)"
reportedresult = "5.00 to 6.00"

[[record]]
molecule = "COc1ccc(C(C)(C)C)cc1CN[C@H]1[C@H](C(C)(C)C)[C@@H](C(=O)O)N(C(=O)C2CC(C)(C)OC(C)(C)C2)[C@H]1c1ccccc1"
testsystem = "F508delCFTR (Homo sapiens, UniProt P13569, DEL508-508)"
reportedresult = "> 6.00"

[[record]]
molecule = "COc1ncc(C2CCC2)cc1CN[C@H]1[C@H](C(C)(C)C)[C@@H](C(=O)O)N(C(=O)C2COc3ccccc3O2)[C@H]1c1ccccc1 (some centres unmarked) [II-474]"
testsystem = "F508delCFTR (Homo sapiens, UniProt P13569, DEL508-508)"
reportedresult = "5.00 to 6.00"

[[record]]
molecule = "COc1ccc(C(C)(C)C)cc1CN[C@H]1[C@H](C(C)(C)C)[C@@H](C(=O)O)N(C(=O)c2ccccc2)[C@H]1c1ccccc1"
testsystem = "F508delCFTR (Homo sapiens, UniProt P13569, DEL508-508)"
reportedresult = "5.00 to 6.00"

[[record]]
molecule = "COc1ccc(C(C)(C)C)cc1CN[C@H]1[C@H](C(C)(C)C)[C@@H](C(=O)O)N(C(=O)[C@@H]2CCCO2)[C@H]1c1ccccc1"
testsystem = "F508delCFTR (Homo sapiens, UniProt P13569, DEL508-508)"
reportedresult = "5.00 to 6.00"

[[record]]
molecule = "COc1ccc(C23CC(C2)C3)cc1CN[C@H]1[C@H](C(C)(C)C)[C@@H](C(=O)O)N(C(=O)OC(C)C)[C@H]1c1cccnc1N(C)C"
testsystem = "F508delCFTR (Homo sapiens, UniProt P13569, DEL508-508)"
reportedresult = "5.00 to 6.00"

[[record]]
molecule = "COc1ccc(C(C)(C)C)cc1CN[C@H]1[C@H](C(C)(C)C)[C@@H](C(=O)O)N(C(=O)CC(C)C)[C@H]1c1ccccc1"
testsystem = "F508delCFTR (Homo sapiens, UniProt P13569, DEL508-508)"
reportedresult = "5.00 to 6.00"

[[record]]
molecule = "COc1ccc(C(C)(C)C)nc1CN[C@H]1[C@H](C(C)(C)C)[C@@H](C(=O)O)N(C(=O)C2CCCCC2)[C@H]1c1ccccc1"
testsystem = "F508delCFTR (Homo sapiens, UniProt P13569, DEL508-508)"
reportedresult = "5.00 to 6.00"

[[record]]
molecule = "COc1ccc(C(C)(C)C)cc1CN[C@H]1[C@H](C(C)(C)C)[C@@H](C(=O)O)N(C(=O)[C@H](C)[C@H]2CCCCO2)[C@H]1c1ccccc1 (relative stereo)"
testsystem = "F508delCFTR (Homo sapiens, UniProt P13569, DEL508-508)"
reportedresult = "5.00 to 6.00"

[[record]]
molecule = "COc1ccc(C(F)(F)F)cc1CN[C@@H]1[C@@H](C(C)(C)C)[C@H](C(=O)O)N(C(=O)[C@H](OC)c2ccccc2)[C@@H]1c1ccccc1"
testsystem = "F508delCFTR (Homo sapiens, UniProt P13569, DEL508-508)"
reportedresult = "5.00 to 6.00"

[[record]]
molecule = "COc1ncc(C2CCC2)cc1CN[C@H]1[C@H](C(C)(C)C)[C@@H](C(=O)O)N(C(=O)[C@@H]2CCCCO2)[C@H]1c1ccccc1F"
testsystem = "F508delCFTR (Homo sapiens, UniProt P13569, DEL508-508)"
reportedresult = "5.00 to 6.00"

[[record]]
molecule = "COc1ccc([Si](C)(C)C)cc1CN[C@H]1[C@H](C(C)(C)C)[C@@H](C(=O)O)N(C(=O)[C@H]2CCCC(F)(F)C2)[C@H]1c1ccccc1"
testsystem = "F508delCFTR (Homo sapiens, UniProt P13569, DEL508-508)"
reportedresult = "> 6.00"

[[record]]
molecule = "CC(C)c1ccccc1CN[C@@H]1[C@@H](C(C)(C)C)[C@H](C(=O)O)N(C(=O)C2CCCCC2)[C@@H]1c1ccccc1 (racemic)"
testsystem = "F508delCFTR (Homo sapiens, UniProt P13569, DEL508-508)"
reportedresult = "> 6.00"

[[record]]
molecule = "CCn1nc(C)c(C(=O)N2[C@H](C(=O)O)[C@@H](C(C)(C)C)[C@H](NCc3cc(C(C)(C)C)ccc3OC)[C@@H]2c2ccccc2)c1C"
testsystem = "F508delCFTR (Homo sapiens, UniProt P13569, DEL508-508)"
reportedresult = "5.00 to 6.00"

[[record]]
molecule = "COc1ccc(C(C)(C)C)cc1CN[C@H]1[C@H](C(C)(C)C)[C@@H](C(=O)O)N(C(=O)C2CCCCC2C)[C@H]1c1ccccc1 (some centres unmarked)"
testsystem = "F508delCFTR (Homo sapiens, UniProt P13569, DEL508-508)"
reportedresult = "> 6.00"

[[record]]
molecule = "COc1ncc(C2CCC2)cc1CN[C@@H]1[C@@H](C(C)(C)C)[C@H](C(=O)O)N(C(=O)[C@@H]2CCCO2)[C@@H]1c1ccccc1Cl"
testsystem = "F508delCFTR (Homo sapiens, UniProt P13569, DEL508-508)"
reportedresult = "5.00 to 6.00"

[[record]]
molecule = "COc1ncc(C2CCC2)cc1CN[C@H]1[C@H](C(C)(C)C)[C@@H](C(=O)O)N(C(=O)[C@@H]2CCCO2)[C@H]1c1ccccc1C(C)C"
testsystem = "F508delCFTR (Homo sapiens, UniProt P13569, DEL508-508)"
reportedresult = "> 6.00"

